experiment: Compound was evaluated for its ability to inhibit activation of NFkB protease stably expressed in human Jurkat T-cells; format: cell-based
Square brackets hold non-standard residues; d marks the D form. Peptide text beside a SMILES is read from it. * marks the point of attachment. 1Nal = N[C@@H](Cc1cccc2ccccc12)C(=O)O; 2Nal = N[C@@H](Cc1ccc2ccccc2c1)C(=O)O; Cbz = O=C(OCc1ccccc1)*
QUANTITY: IC50 (µM)

INSERT INTO measurements (molecule, result_unit, censoring_qualifier, endpoint_result) VALUES
  ('CC(C)C[C@H](NC(=O)[C@H](Cc1cccc2ccccc12)NC(=O)[C@H](Cc1ccc2ccccc2c1)NC(=O)OCc1ccccc1)C(=O)O (Cbz-[2Nal]-[1Nal]-Leu-OH)', 'µM', '=', 3),
  ('CC(C)C[C@H](NC(=O)OCc1ccccc1)C(=O)N[C@@H](CC(C)C)C(=O)N[C@@H](Cc1ccccc1)C(=O)C(=O)C(=O)OCc1ccccc1', 'µM', '=', 20),
  ('CC(C)C[C@H](NC(=O)OCc1ccccc1)C(=O)N[C@@H](CC(C)C)C(=O)N[C@@H](Cc1ccccc1)C(=O)Nc1ccc(C(F)(F)F)cc1', 'µM', '>', 30),
  ('CC(=O)[C@H](Cc1ccccc1)NC(=O)[C@H](CC(C)C)NC(=O)[C@H](CC(C)C)NC(=O)OCc1ccccc1', 'µM', '>', 30),
  ('CC(=O)c1cccc(NC(=O)[C@H](CC(C)C)NC(=O)[C@H](CC(C)C)NC(=O)OCc2ccccc2)c1', 'µM', '>', 10),
  ('CON(C)C(=O)[C@H](Cc1ccccc1)NC(=O)[C@H](CC(C)C)NC(=O)[C@H](CC(C)C)NC(=O)OCc1ccccc1 (stereo in doubt; 4a(L))', 'µM', '=', 18);

---

test: Compound was evaluated for its ability to inhibit activation of NFkB protease stably expressed in human Jurkat T-cells; assay type: cell-based
Peptide text beside a SMILES is read from it. * marks the point of attachment. Cbz = O=C(OCc1ccccc1)*
QUANTITY: IC50

INSERT INTO results (compound, endpoint_result) VALUES
  ('CON(C)C(=O)[C@H](Cc1ccccc1)NC(=O)[C@H](CC(C)C)NC(=O)[C@H](CC(C)C)NC(=O)OCc1ccccc1 (stereo in doubt; 4b(D))', '> 30 µM'),
  ('CC(C)C[C@H](NC(=O)OCc1ccccc1)C(=O)N[C@@H](CC(C)C)C(=O)N[C@@H](Cc1ccccc1)C(=O)C(F)(F)C(F)(F)F', '> 30 µM'),
  ('CC(C)CC(NC(=O)OCc1ccccc1)C(=O)NC(CC(C)C)C(=O)NC(C=O)Cc1ccccc1 (stereo not drawn) (Cbz-Leu-Leu-Phe-aldehyde; configuration not given here)', '2 µM');
